tested on: murine splenocytes; assay: ConA mitogen-stimulated proliferation of murine splenocytes ([3H]-thymidine incorporation); type: cell-based, mouse (BALB/c); settings: ConA 1 μg/ml, 100,000 spleen cells, Experiment I; read-out: IC50 in inhibition of ConA induced murine splenocyte proliferation
attribute_measured: IC50 (µM)
Give bare numbers, in µM.

Some solved cases for reference:
compound	unit_tag	IC50
C=CCCCCCCCCC(=O)CC(=O)N[C@H]1CCOC1=O	µM	7
CCCCCCCCCCC(=O)CC(=O)N[C@H]1CCOC1=O	µM	4
CCCCCCC=CCCCC(O)CC(=O)N[C@H]1CCOC1=O (stereo partly drawn)	µM	12
O=C(CCCCCCCCCCBr)CC(=O)N[C@H]1CCOC1=O	µM	3
CCCC=CCCCCCCC(O)CC(=O)N[C@H]1CCOC1=O (stereo partly drawn)	µM	20
O=C(CCCCCCCCCCCBr)CC(=O)N[C@H]1CCOC1=O	µM	8
CN(C)C(=O)CCCCCCCCC(=O)CC(=O)N[C@H]1CCOC1=O	µM	35
CCCC=CCCCCCCC(=O)CC(=O)N[C@H]1CCOC1=O	µM	15

Your task in this section: give IC50 for each listed record.
1. O=C(CCCCCCCCBr)CC(=O)N[C@H]1CCOC1=O
2. CCC=CCCCCCCCC(O)CC(=O)N[C@H]1CCOC1=O (stereo partly drawn)
3. CCCCCCCCCC(=O)CC(=O)N[C@H]1CCOC1=O

Ans.
1: 6; 2: 20; 3: 4

Provenance of the data: patent US7371779B2
